Where these numbers come from: BigSolDB 2.1

Details: in n-pentanol, 303.15 K
quantity_kind: solubility (mole fraction)

* NC(=O)OCCCc1ccccc1 | 0.0404

----------
Settings: in acetone, 323.15 K
quantity_kind: solubility (mole fraction)

* NC(=O)OCCCc1ccccc1 | 0.202
